Sourced from the supplement of paper PMC6755084

B1: F1*; the commonest letter at each place (parent)
chain: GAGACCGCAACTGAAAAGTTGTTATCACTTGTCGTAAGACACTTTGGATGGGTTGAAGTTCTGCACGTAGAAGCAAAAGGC

Variants of: B1
PROCEDURE TEXT: fraction ligated after 30 min (ligated reads / total reads); higher = more ligase activity
CONDITION INFO: with F1*sub RNA substrate (template-directed ligation), 42 °C
Use 0.8 as the dividing line for fraction ligated, with the line itself on the 1 (yes) side and lower values as 0 (no).

{"VARIANT": "T32G C42T", "CATEGORY LABEL": "1 (yes)"}
{"VARIANT": "G38C G55C", "CATEGORY LABEL": "0 (no)"}
{"VARIANT": "C26A A57T", "CATEGORY LABEL": "0 (no)"}
{"VARIANT": "A27G C33T", "CATEGORY LABEL": "1 (yes)"}
{"VARIANT": "G31A G55C", "CATEGORY LABEL": "0 (no)"}
{"VARIANT": "T23A A36G", "CATEGORY LABEL": "1 (yes)"}
{"VARIANT": "A37G C42G", "CATEGORY LABEL": "1 (yes)"}
{"VARIANT": "A36G G47C", "CATEGORY LABEL": "0 (no)"}
{"VARIANT": "T23A A56C", "CATEGORY LABEL": "0 (no)"}
{"VARIANT": "T25A A48G", "CATEGORY LABEL": "0 (no)"}
{"VARIANT": "T23G G50C", "CATEGORY LABEL": "0 (no)"}
{"VARIANT": "T32C T35C", "CATEGORY LABEL": "1 (yes)"}
{"VARIANT": "G47A G55T", "CATEGORY LABEL": "0 (no)"}
{"VARIANT": "T45G T49A", "CATEGORY LABEL": "0 (no)"}
{"VARIANT": "A37C C42G", "CATEGORY LABEL": "1 (yes)"}
{"VARIANT": "T43A G50A", "CATEGORY LABEL": "0 (no)"}
{"VARIANT": "C26T G34A", "CATEGORY LABEL": "1 (yes)"}
{"VARIANT": "C28A G55C", "CATEGORY LABEL": "0 (no)"}
{"VARIANT": "G38T G47A", "CATEGORY LABEL": "0 (no)"}
{"VARIANT": "C42T G46A", "CATEGORY LABEL": "1 (yes)"}
{"VARIANT": "A24G A48C", "CATEGORY LABEL": "0 (no)"}
{"VARIANT": "T32C A48C", "CATEGORY LABEL": "0 (no)"}
{"VARIANT": "T32A A39T", "CATEGORY LABEL": "1 (yes)"}
{"VARIANT": "C33A G55C", "CATEGORY LABEL": "0 (no)"}
